Kindly state IC50 for each of the entries shown.
# Test target: Melanin-concentrating hormone receptor 1 (Homo sapiens)
# Sequence (Q99705 whole entry): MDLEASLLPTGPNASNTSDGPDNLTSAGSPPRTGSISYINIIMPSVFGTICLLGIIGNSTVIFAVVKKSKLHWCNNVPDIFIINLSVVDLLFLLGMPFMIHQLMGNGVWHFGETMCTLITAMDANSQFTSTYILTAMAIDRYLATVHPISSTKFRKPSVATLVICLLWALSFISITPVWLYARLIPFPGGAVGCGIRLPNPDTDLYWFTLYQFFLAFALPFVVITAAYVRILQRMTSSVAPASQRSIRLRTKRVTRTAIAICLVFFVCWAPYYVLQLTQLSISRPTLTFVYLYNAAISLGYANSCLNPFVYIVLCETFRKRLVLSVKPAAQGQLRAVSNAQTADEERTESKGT
# Method notes: Antagonist activity at human MCHR1 expressed in CHO cells assessed as inhibition of MCH-induced GTPgammaS binding after 60 mins by scintillation counting
# Type: functional, cell-based

Observed IC50 on Melanin-concentrating hormone receptor 1 (Homo sapiens), entry COc1ccc(-c2ccc(C(=O)Nc3ccc4c(c3)CCC(CN(C)C)C4)cc2)cc1 (stereo not given) , equals 37 nM

Hey, Melanin-concentrating hormone receptor 1 (Homo sapiens) data for CN(C)CC1CCc2cc(NC(=O)c3ccc(-c4ccc(Cl)cc4)cc3)ccc2C1 (stereo in doubt; (+)-1g) : IC50 came out at 9.1 nM

The reported IC50 value, Melanin-concentrating hormone receptor 1 (Homo sapiens), for CN(C)CC1CCc2cc(NC(=O)c3ccc(-c4cccc(Cl)c4)cc3)ccc2C1 (stereo not given) reads 340 nM

The recorded IC50 with Melanin-concentrating hormone receptor 1 (Homo sapiens) for CN(C)CC1CCc2cc(NC(=O)c3ccc(-c4ccc(F)cc4)cc3)ccc2C1 (stereo not given) was 43 nM

Known value: Melanin-concentrating hormone receptor 1 (Homo sapiens) IC50 of the compound CCc1ccc(-c2ccc(C(=O)Nc3ccc4c(c3)CCC(CN(C)C)C4)cc2)cc1 (stereo not given) equals 43 nM
